// data source = PubChem BioAssay (NCI)

Test system: OVCAR-8 ovarian
Test: NCI tumour cell line growth inhibition, 48 h
Metric: TGI

1. c1ccc2c(NCCCCCCNc3c4ccccc4nc4ccccc34)c3ccccc3nc2c1: 3.18 µM
2. CC1CN=C(Nc2ccccc2)S1 (stereo not drawn): > 100 µM
3. C[C@]12CCC(=O)C(O)=C1CC[C@@H]1C2CC[C@]2(C)NC(=O)CCC12 (stereo partly drawn): > 100 µM
4. O=C(c1ccccc1)c1c(-c2ccccc2)sc2nc3ccccc3nc12: > 100 µM
5. N#CC1C(=O)SC2c3ccccc3C(=O)c3ccccc3C12 (stereo not drawn): > 10 µM
6. Cc1occc1C(=S)Nc1ccc(Cl)c(C(=O)OC(C(C)C)C(C)C)c1: 26.5 µM
7. O=c1ccs[nH]1: 32.9 µM
8. COC(=O)C1=CSC2(S1)C(C(=O)OC)=CSc1c2ssc1=O (stereo not drawn): 8.47 µM

# ---- query molecule ----
Given the molecule O=C1c2ccccc2CN1c1ccc(OCCN2CCCCC2)cc1 , what is its reported TGI?
> 10 µM
